experiment: NCI Yeast Anticancer Drug Screen. Data for the mlh1 rad18 strain (AID 175); details: S. cerevisiae mlh1 rad18 strain growth inhibition; at 50.0 µM; hits give high values
Compounds without any hit were thinned out: in the full panel of roughly 79,000, 15% have a hit.
Consider the following compounds; for each one, report its growth inhibition.
API: value field is a number in %; no unit string.

Quote growth inhibition reported for `C/C=C/C(=O)[O-].C/C=C/C(=O)[O-].N.N.N.N.[Co+3].[O-][Cl+3]([O-])([O-])[O-]` please.
-3.5

Give recorded growth inhibition. `COc1ccc2c(=O)c3ccccc3oc2c1CN(CCCl)CCCl`
-8.25

Provide growth inhibition value for the following compound: `N#Cc1cccnc1`
2.75

Respond only with growth inhibition recorded for `ClCCN(CCCl)c1ccc(/C=N\N=C\c2ccncc2)cc1`
-1.8

Supply reported growth inhibition belonging to this compound: `N#CCO`
-5.65

Specify reported growth inhibition for the compound shown: `Nc1nc(=S)nc(N)[nH]1`
-2.5

Specify reported growth inhibition for the compound shown: `Cc1ccc(NC(=O)CCc2ccc(N3C(N)=NC(N)=NC3(C)C)cc2Cl)cc1S(=O)(=O)F`
15

Output measured growth inhibition for this item: `Cc1cc(C)c(O)c(C)c1`
4.45

Please give the documented growth inhibition of `C=C(Br)C[N+]12CN3CN(CN(C3)C1)C2`
-17.2

Dear colleague, please send me the reported growth inhibition for `CCCC[C@H]1C(=O)O[C@H](C)[C@H](NC(=O)c2cccc(NC=O)c2O)C(=O)O[C@@H](C)[C@@H]1OC(=O)CC(C)C` when you can.
44.2

Item `CCCCC1(CCC)C(=O)NC(=O)NC1=O` : provide growth inhibition
15.8

Output measured growth inhibition for this item: `CN(C)C1(c2ccc3ccccc3c2)CSC1`
2.25

Look up and state reported growth inhibition for `O=C(O)c1ccc(=O)[nH]c1`
19.6

Answer with reported growth inhibition of `Cc1ccnc(NN=O)c1`
2.25

Using the record for `CNC1=C(N2CC2)C(=O)C(NC)=C(N2CC2)C1=O` , state its measured growth inhibition.
36.4

Provide measured growth inhibition value, entry: `CCCCCCCCCCC[CH2][Hg][Cl]`
-3.1

Identify the reported growth inhibition for the following entry. `CO[C@H]1C=CC2=CCN3CCC4=C(CC(=O)OC4)[C@]23C1`
-15.4

Determine its reported growth inhibition: NC(C/C=C/P(=O)(O)O)C(=O)O (stereo unspecified)
-33

Please list growth inhibition recorded for the compound O=C(CC(O)C(Cl)(Cl)Cl)CC(O)C(Cl)(Cl)Cl (stereo unspecified)
13.4

Return value of growth inhibition for input `O=[N+]([O-])c1cc(Br)c(O)c(Br)c1` , no commentary.
32.3

Supply growth inhibition value. Item: `NNC(=O)c1ccccc1`
-19

Given the compound CC(Cl)CN1CCN(CC(C)Cl)CC1 (stereo unspecified) , write its reported growth inhibition.
-10.3

State, in one line, measured growth inhibition of `[NH2-].[NH2-].[NH2-].[NH2-].[NH2-].[NH2-].[Ru+6]`
-20.8

Tell us which growth inhibition value is on record for `O=C(CC(=O)C(F)(F)F)c1ccco1.[Fe]`
14.7

Supply growth inhibition value. Item: `NC1=Nc2ccccc2Sc2ccccc21`
-33.8

Read the entry C=C(C)c1ccccc1 (tested in a mixture with another compound) and write its reported growth inhibition.
10.6

----------
For each entry below, report its growth inhibition value.
experiment: NCI Yeast Anticancer Drug Screen. Data for the mec2-1 strain (AID 157); settings: S. cerevisiae mec2-1 strain, at 50.0 µM, hits give high values
About 79,000 compounds went through this panel and 15% of them were active in at least one assay; those are over-represented in the sample as a whole. Active and inactive are the calls of the source. Cut-off read from the data, not from the text of the source: active = growth inhibition above about 70%; inactive = the rest.

Fill in growth inhibition for record `O=C1CCCN1CC#CCN1CCCC1`
-20.9% (inactive)

Read off the recorded growth inhibition for C=CC1CN2CCC1CC2C(O)c1ccnc2ccccc12 (stereo not drawn) (tested in a mixture with another compound)
-17.1% (inactive)

Quote growth inhibition reported for `NNC(=O)c1ccccc1` please.
-2.05% (inactive)

Report measured growth inhibition; entry is `CN(C)CCCNc1c2c(nc3ccc(Cl)cc13)CCCC2`
-20.4% (inactive)

Please look at this molecule and report its growth inhibition: CCOP(=O)(NCc1ccccc1)c1ccc(N)cc1 (stereo not drawn)
-6.45% (inactive)

Give the measured growth inhibition for `Cc1ccc(OP(=O)(Oc2ccc(C)cc2)Oc2ccc(C)cc2)cc1.Cc1ccc(OP(=O)(Oc2ccc(C)cc2)Oc2ccc(C)cc2)cc1.Cc1ccc(OP(=O)(Oc2ccc(C)cc2)Oc2ccc(C)cc2)cc1.Cc1ccc(OP(=O)(Oc2ccc(C)cc2)Oc2ccc(C)cc2)cc1.[Nd+3].[O-][Cl+3]([O-])([O-])O`
23.7% (inactive)

# return recorded growth inhibition for entry Oc1ccccc1C=NC1CCCCC1N=Cc1ccccc1O.[Ni] (stereo not drawn)
4.05% (inactive)

Give growth inhibition for C[Se]c1ncnc2c1c(C#N)cn2C1OC(CO)C(O)C1O (stereo not drawn)
14.3% (inactive)

Using known records, supply growth inhibition for `Cc1cc(S(=O)(=O)F)ccc1NC(=O)NCc1ccc(N2C(N)=NC(N)=NC2(C)C)cc1`
-18% (inactive)

Determine its reported growth inhibition: `COC(=O)COC1CC[CH-]CC1.[Cl-].[Cl-].[Cl-].[Cl-].[Cl-].[Sb+5].c1ccncc1`
7.8% (inactive)

Return growth inhibition (reported value) for this molecule: `O=C1NC(=S)NC(=O)C1=Cc1ccco1`
-19.9% (inactive)

Give growth inhibition for `O=c1[nH]c2ccccc2c(=O)n1-c1ccco1`
-13.5% (inactive)

State its growth inhibition: `O=C1C(Cl)=C(Cl)C1(Cl)Cl`
-20.4% (inactive)

Report growth inhibition for COc1ccc(N2C(=O)C3C4c5ccccc5C(C3C2=O)[n+]2ccccc24)cc1 (stereo not drawn)
-14.1% (inactive)

Using known records, supply growth inhibition for `CNC(=O)O/N=C(\SC)C(=O)N(C)C`
-27.2% (inactive)

Item `Clc1cccc(Cl)c1NC1=NCCS1` : provide growth inhibition
-20.8% (inactive)

Check the records and state growth inhibition for COc1ccc2c3c1OC1C(OC)(OC)CC4(C=C2)CN(C)CCC314 (stereo not drawn)
-22.4% (inactive)

Specify growth inhibition for COC(=O)/C=C/[C@H]1[C@H](C)N1S(=O)(=O)c1ccc(C)cc1 (stereo partly drawn) and stop.
20.1% (inactive)

For C[N+](C)(C)CC1CCc2ccccc2C1=O (stereo not drawn) , write its growth inhibition.
44.6% (inactive)

Read the entry `O=C(O)c1ccccc1N(CCO)CCCl` and write its reported growth inhibition.
-10.4% (inactive)

Specify measured growth inhibition for COc1cc2c(cc1OC)C13CCN4CC5CCOC6CC(=O)N2C1C6C5CC43 (stereo not drawn) .
6.35% (inactive)

Supply reported growth inhibition belonging to this molecule: `CC(=O)Nc1cccc([As+](C)(C)C)c1`
9.75% (inactive)

Consider the molecule CCOC(=O)/C=C1/C=C(C)CC(C)(C)C1 (tested in a mixture with another compound) . State its measured growth inhibition.
-58.7% (inactive)

Dear colleague, please send me the reported growth inhibition for `O=C(Nc1cccc(S(=O)(=O)F)c1)c1cccc([N+](=O)[O-])c1` when you can.
94.8% (active)

Give the value of growth inhibition reported for the following: N#CC(C#N)C1CN2CCC1CC2 (stereo not drawn)
13.3% (inactive)

Query growth inhibition for C=C1C(=O)OC2CCN3CC=C(COC(=O)C(C)(O)C4(CO4)C1C)C23 (stereo not drawn)
0.95% (inactive)

Read the entry `CCNCCc1ccc(N)cc1` and write its reported growth inhibition.
-2.95% (inactive)

For the molecule `OC1(C#[C][Hg][C]#CC2(O)CCCCC2)CCCCC1` , give its measured growth inhibition value.
89.5% (active)

Assign growth inhibition to the following record: CCOP(=O)(OCC)C(O)c1ccc(Cl)cc1 (stereo not drawn)
-13.8% (inactive)

Given the molecule `CC1(C)c2ccccc2C(c2ccccc2)(c2ccccc2)[N+]1(C)C` , write its reported growth inhibition.
33.7% (inactive)

Provide growth inhibition value for the following molecule: `O=c1cc(CCl)occ1O`
19.5% (inactive)

Kindly indicate its recorded growth inhibition. Item: `Nc1ccc([N+](=O)[O-])cc1N`
-14.7% (inactive)

Give me measured growth inhibition, please, for this molecule: `O=CC1(c2ccccc2)CCN(Cc2ccccc2)CC1`
-16.1% (inactive)

For the molecule `N#CN` , report growth inhibition.
-17.2% (inactive)

Quote growth inhibition reported for `CC(C)OP(=O)(OC(C)C)C(=O)Nc1ccc(Cl)cc1` please.
16.1% (inactive)

Could you please provide reported growth inhibition for CC(CO)[N+](=O)[O-] (stereo not drawn) ? Thanks!
1.15% (inactive)

Given the molecule `Cc1ccc(C(=O)Nc2ccc(CP(=O)(O)O)cc2)cc1NC(=O)Nc1cc(C(=O)Nc2ccc(CP(=O)(O)O)cc2)ccc1C` , write its reported growth inhibition.
-10.6% (inactive)

Note growth inhibition for the molecule shown: `COc1ccccc1CCN`
-5.9% (inactive)

Note growth inhibition for the molecule shown: O=C(O)C(O)(c1ccccc1)c1ccsc1 (stereo not drawn)
2.15% (inactive)

Using known records, supply growth inhibition for O=C1NC2NC3NC(=O)NC3NC2N1 (stereo not drawn)
1.85% (inactive)

Provide measured growth inhibition value, entry: CCOC(=O)C(Cc1ccc(N(CCCl)CCCl)cc1)NC(=O)C(C)NC(C)=O (stereo not drawn)
-7.3% (inactive)

Return growth inhibition for the following molecule: NC1CC2NC3CCCCC3NC2CC1N (stereo not drawn)
6.25% (inactive)

Specify growth inhibition for `S=C(N=Nc1ccccc1)NNc1ccccc1.[Ni]` and stop.
-15.3% (inactive)

Write down growth inhibition measured for item `CCCN(CCC)CCc1ccc(OC2=CCN(C)CC2)cc1`
-22.1% (inactive)

Recall and state the measured growth inhibition for `NC(=O)Oc1ccccc1` .
-26.4% (inactive)

Please indicate growth inhibition recorded for `C=C(C)C1(CCC)C(=O)NC(=S)NC1=O`
19.7% (inactive)

Give the reported value of growth inhibition for this record: C/C=C1/C[C@@H](C)[C@@](C)(O)C(=O)OCC2=CC[N+]3([O-])CC[C@@H](OC1=O)[C@@H]23 (stereo partly drawn)
-17.4% (inactive)

Return reported growth inhibition. Input molecule: CC1CN1P(=O)(N1CCCC1)N1CC1C (stereo not drawn)
15.1% (inactive)

Data provenance: PubChem BioAssay (NCI)
